test system: Plasmodium berghei (Pb-Luc) exoerythrocytic-stage parasites; assay: microbe, parasite or virus in culture; details: read-out: Inhibition% @ 50 uM rep2

# Molecule, Uom, inhibition at 50 µM
measured = [
    ("CC(C)(C)c1ccc2c(c1)CN(Cc1ccc(Cl)cc1)CO2 [MMV000442]", "%", 101),
    ("COc1ccc(C(C)=O)cc1N1C(=O)C2C(C1=O)C1(c3ccccc3)C(=O)C2(c2ccccc2)C(c2ccc(C)cc2)=C1c1ccc(C)cc1 (stereo not shown) [MMV007695]", "%", 104),
    ("Cc1cc(=O)oc2c1ccc1oc(C(=O)c3ccccc3)c(C)c12 [MMV006753]", "%", 103),
    ("CCOc1ccc2nc(C)cc(Nc3ccc(N(C)C)cc3)c2c1 [MMV007020]", "%", 101),
    ("OC(CNC1CCCC1)Cn1c2ccccc2c2ccccc21 (stereo not shown) [MMV000848]", "%", 104),
    ("CC(C)(C)CC(C)(C)NCC(O)COc1ccc(Cl)cc1Cl (stereo not shown) [MMV396794]", "%", 104),
    ("CCC1(C)CC(CCNCc2ccccc2O)(c2ccc(C)cc2)CCO1 (stereo not shown) [MMV019406]", "%", 102),
]
